# EXPERIMENTAL_TARGET: Human recombinant full length HDAC6 (Homo sapiens (Human))
# Sequence (Q9UBN7 whole entry): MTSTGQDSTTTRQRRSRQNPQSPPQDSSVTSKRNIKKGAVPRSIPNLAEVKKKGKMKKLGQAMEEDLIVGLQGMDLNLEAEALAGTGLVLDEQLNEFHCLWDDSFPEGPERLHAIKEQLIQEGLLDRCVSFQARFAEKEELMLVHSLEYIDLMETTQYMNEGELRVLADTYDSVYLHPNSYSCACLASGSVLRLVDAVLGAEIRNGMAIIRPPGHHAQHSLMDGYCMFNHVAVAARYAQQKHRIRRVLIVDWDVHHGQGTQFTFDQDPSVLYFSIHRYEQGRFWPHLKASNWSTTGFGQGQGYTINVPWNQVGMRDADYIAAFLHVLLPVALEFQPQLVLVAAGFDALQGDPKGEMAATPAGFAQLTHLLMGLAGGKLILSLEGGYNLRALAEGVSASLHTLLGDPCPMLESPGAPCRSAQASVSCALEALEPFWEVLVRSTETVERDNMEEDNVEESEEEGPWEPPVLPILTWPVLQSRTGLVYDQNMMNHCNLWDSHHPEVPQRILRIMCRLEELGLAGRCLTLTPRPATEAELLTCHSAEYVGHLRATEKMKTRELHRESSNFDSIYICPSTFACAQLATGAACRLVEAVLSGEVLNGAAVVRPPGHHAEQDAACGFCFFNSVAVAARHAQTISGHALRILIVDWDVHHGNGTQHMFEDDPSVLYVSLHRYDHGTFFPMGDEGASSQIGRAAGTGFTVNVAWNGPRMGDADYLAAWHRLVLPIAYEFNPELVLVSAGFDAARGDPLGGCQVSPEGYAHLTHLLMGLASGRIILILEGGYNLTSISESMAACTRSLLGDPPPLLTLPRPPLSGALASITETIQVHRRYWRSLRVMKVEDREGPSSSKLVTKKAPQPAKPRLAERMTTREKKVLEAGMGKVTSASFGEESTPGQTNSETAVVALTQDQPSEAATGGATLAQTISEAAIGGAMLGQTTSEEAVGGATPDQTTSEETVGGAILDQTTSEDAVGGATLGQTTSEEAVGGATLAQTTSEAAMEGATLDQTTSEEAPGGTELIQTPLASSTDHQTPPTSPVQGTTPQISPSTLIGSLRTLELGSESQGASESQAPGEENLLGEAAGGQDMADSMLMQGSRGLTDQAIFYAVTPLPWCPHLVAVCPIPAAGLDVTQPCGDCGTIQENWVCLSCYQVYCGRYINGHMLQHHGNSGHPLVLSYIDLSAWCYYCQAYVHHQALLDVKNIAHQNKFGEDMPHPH
# METHOD_DESCRIPTION: Test 4: HDAC6 assay
# Format: biochemical
# COND: Test 4; substrate 5 μM acetyl-Gly-Ala-Lys(acetyl)-AMC
pIC50: −log10 of the molar value.
MEASURED_PARAMETER: pIC50

As a guide, the following entries are already answered.
CN1CCN(C(=O)c2ccc(-c3noc(C(F)(F)F)n3)cc2)CC1 : < 5.00
CN(CCO)C(=O)c1ccc(-c2noc(C(F)(F)F)n2)cc1 : < 5.00

Retrieve pIC50 measured for CC(CN(C)C)NC(=O)c1ccc(-c2noc(C(F)(F)F)n2)cc1 (stereo not drawn) and print it.
< 5.00

###

# EXPERIMENTAL_TARGET: Human recombinant HDAC4 (Homo sapiens (Human), UniProt P56524)
# Sequence (P56524 2-1084): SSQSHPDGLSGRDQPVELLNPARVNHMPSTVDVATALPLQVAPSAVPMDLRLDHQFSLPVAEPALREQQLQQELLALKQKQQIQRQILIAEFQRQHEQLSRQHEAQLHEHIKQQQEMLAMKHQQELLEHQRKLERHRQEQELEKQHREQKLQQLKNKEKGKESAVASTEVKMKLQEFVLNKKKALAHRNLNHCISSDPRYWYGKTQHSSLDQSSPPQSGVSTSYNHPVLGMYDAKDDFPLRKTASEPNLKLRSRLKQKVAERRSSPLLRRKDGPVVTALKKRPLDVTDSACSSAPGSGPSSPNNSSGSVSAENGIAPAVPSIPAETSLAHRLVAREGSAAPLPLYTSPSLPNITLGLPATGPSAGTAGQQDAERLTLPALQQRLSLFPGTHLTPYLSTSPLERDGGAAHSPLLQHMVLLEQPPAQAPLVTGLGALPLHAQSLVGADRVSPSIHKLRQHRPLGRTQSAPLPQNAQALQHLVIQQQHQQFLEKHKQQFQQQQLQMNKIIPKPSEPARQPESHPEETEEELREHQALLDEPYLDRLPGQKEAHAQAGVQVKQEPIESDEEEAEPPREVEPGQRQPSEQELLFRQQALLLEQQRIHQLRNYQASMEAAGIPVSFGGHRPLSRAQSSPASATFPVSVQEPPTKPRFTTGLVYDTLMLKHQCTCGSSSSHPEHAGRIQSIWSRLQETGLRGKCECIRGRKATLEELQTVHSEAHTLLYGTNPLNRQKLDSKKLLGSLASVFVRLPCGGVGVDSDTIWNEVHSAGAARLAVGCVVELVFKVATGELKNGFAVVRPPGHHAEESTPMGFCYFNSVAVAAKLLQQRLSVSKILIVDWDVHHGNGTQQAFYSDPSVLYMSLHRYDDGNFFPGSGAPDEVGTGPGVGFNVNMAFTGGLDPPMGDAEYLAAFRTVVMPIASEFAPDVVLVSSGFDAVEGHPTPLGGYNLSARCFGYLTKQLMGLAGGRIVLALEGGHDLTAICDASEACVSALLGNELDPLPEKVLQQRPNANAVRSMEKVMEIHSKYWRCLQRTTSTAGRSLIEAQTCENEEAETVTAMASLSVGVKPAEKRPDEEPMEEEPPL
# METHOD_DESCRIPTION: Test 2: HDAC4 assay (fluorogenic substrate, 5 μM acetyl-Gly-Ala-Lys(ε-trifluoroacetyl)-AMC)
# Format: biochemical
# COND: Test 2 (values without asterisk)
MEASURED_PARAMETER: IC50 (nM)

O=S(=O)(NCCCO)c1ccc(-c2noc(C(F)(F)F)n2)cc1 [Example 116] : 160
CC(C)[C@H](CN(C)C)NC(=O)c1ccc(-c2noc(C(F)(F)F)n2)cc1 [Example 84] : 490
CN(C)C[C@H](Cc1ccccc1)NC(=O)c1ccc(-c2noc(C(F)(F)F)n2)cc1 [Example 93] : 190

P: CC(CN(C)C)N(C)C(=O)c1ccc(-c2noc(C(F)(F)F)n2)cc1 (stereo not shown) [Example 94]
Q: CCCN(C)C[C@@H](C)NC(=O)c1ccc(-c2noc(C(F)(F)F)n2)cc1F [Example 143]
Lab note: check whether P or Q shows the higher recorded IC50. Use the label to indicate which entry you chose.
P
(P: 520 nM, Q: 1.2 nM)

###

# EXPERIMENTAL_TARGET: Human recombinant HDAC4 (Homo sapiens (Human), UniProt P56524)
# METHOD_DESCRIPTION: Test 2: HDAC4 assay (fluorogenic substrate, 5 μM acetyl-Gly-Ala-Lys(ε-trifluoroacetyl)-AMC)
# Type: biochemical
# COND: Test 2 (values without asterisk)
pIC50: −log10 of the molar value.
MEASURED_PARAMETER: pIC50

As a guide, the following entries are already answered.
O=C(NC1CCC1)c1ccc(-c2noc(C(F)(F)F)n2)cc1 [Example 25] : 6.33
O=C(NC1CCCCC1O)c1ccc(-c2noc(C(F)(F)F)n2)cc1 (centres unmarked) [Example 61] : 6.10

P: CNC(=O)c1ccc(-c2noc(C(F)(F)F)n2)cc1 [Example 2]
Q: CCN(CC)CCNC(=O)c1ccc(-c2noc(C(F)(F)F)n2)cc1 [Example 155]
R: CN(CCO)C(=O)c1ccc(-c2noc(C(F)(F)F)n2)cc1 [Example 15]
Please produce an ascending ranking of these compounds based on pIC50. Would you mind listing the labels in the order asked for?
R, P, Q
(R: 6.00, P: 6.28, Q: 7.92)
